Procedure text: in vivo
Assay conditions: Sprague-Dawley, rat, po, 15 mg/kg
Recorded endpoint: Tmax at 24 h (h)

# Chemical structure, Unit of measurement, Tmax at 24 h
measured = [
    ("Cc1cnc(Nc2ccc(OCCCCCCC(=O)NO)c(F)c2)nc1Nc1cccc(S(=O)(=O)NC(C)(C)C)c1", "h", 2.55),
    ("Cc1cnc(Nc2ccc(OCCCCCCC(=O)NO)cc2)nc1Nc1cccc(S(=O)(=O)NC(C)(C)C)c1", "h", 2.91),
]

----------
Measurement target: UniProt P23458
Sequence (P23458 whole entry): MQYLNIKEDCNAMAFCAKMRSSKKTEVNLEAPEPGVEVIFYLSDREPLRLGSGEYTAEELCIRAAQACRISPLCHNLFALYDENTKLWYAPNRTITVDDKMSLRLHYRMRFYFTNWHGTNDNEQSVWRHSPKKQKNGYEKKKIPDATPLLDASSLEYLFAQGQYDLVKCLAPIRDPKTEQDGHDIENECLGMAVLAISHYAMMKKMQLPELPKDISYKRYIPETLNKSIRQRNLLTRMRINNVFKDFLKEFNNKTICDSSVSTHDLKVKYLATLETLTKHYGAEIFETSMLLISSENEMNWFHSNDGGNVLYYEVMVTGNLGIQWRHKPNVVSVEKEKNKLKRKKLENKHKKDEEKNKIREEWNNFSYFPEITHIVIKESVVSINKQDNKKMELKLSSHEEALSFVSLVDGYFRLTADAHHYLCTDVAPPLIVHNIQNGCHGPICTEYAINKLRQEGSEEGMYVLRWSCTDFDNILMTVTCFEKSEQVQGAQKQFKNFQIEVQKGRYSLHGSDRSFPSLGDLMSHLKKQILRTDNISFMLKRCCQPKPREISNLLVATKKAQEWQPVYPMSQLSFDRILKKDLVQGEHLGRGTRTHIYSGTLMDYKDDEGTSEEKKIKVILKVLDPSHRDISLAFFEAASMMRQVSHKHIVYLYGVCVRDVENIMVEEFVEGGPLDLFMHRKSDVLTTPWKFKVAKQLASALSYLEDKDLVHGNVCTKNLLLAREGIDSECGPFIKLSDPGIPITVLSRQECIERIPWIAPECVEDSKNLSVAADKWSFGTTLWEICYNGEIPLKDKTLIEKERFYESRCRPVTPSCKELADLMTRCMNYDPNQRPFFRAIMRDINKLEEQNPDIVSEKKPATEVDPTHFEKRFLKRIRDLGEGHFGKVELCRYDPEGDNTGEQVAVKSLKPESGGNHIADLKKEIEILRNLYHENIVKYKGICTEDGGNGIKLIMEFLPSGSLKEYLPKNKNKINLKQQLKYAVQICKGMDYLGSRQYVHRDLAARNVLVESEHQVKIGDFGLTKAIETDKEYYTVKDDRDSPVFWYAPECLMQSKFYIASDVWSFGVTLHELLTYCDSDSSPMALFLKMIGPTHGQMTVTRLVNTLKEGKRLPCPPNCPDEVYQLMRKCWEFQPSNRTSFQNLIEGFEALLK
Recorded endpoint: pIC50
For clarity, pIC50 is expressed as the negative log10 of concentration in mol/L.

Fill in: pIC50 of `Cc1cnc(Nc2ccc(OCCCCCCC(=O)NO)cc2)nc1Nc1cccc(S(=O)(=O)NC(C)(C)C)c1` is ___
7.57

----------
Test system: K562
Procedure text: cells
Format: functional, cell-based
Assay conditions: Homo sapiens, K562, 72 h
pIC50: −log10 of the molar value.
Recorded endpoint: pIC50

Please review the following examples before continuing.
# Chemical structure, pIC50
rows = [
    ("COc1cc(Nc2ncc(C)c(Nc3cccc(S(=O)(=O)NC(C)(C)C)c3)n2)ccc1OCCCCCCC(=O)NO", 5.26),
    ("Cc1cnc(Nc2ccc(OCCCCCCC(=O)NO)c(F)c2)nc1Nc1cccc(S(=O)(=O)NC(C)(C)C)c1", 5.91),
    ("Cc1cnc(Nc2ccc(OCCCCCCC(=O)NO)c(Cl)c2)nc1Nc1cccc(S(=O)(=O)NC(C)(C)C)c1", 5.33),
]

A. Cc1cnc(Nc2ccc(OCCCCCCC(=O)NO)c(C(F)(F)F)c2)nc1Nc1cccc(S(=O)(=O)NC(C)(C)C)c1
B. Cc1cnc(Nc2ccc(OCCCCCCC(=O)NO)c(Br)c2)nc1Nc1cccc(S(=O)(=O)NC(C)(C)C)c1
C. Cc1cnc(Nc2ccc(OCCCCCC(=O)NO)c(C(F)(F)F)c2)nc1Nc1cccc(S(=O)(=O)NC(C)(C)C)c1
Sort the 3 compounds by pIC50; largest first, smallest last. Note for the reader: the ranking is given by listing the labels in the order requested.
B, C, A
(B: 5.68, C: 5.46, A: 5.23)

----------
Procedure text: in vivo
Assay conditions: Sprague-Dawley, rat, iv, 3 mg/kg
Recorded endpoint: MRT at 24 h (min)

# Chemical structure, Unit of measurement, MRT at 24 h
records = [
    ("Cc1cnc(Nc2ccc(OCCCCCCC(=O)NO)c(F)c2)nc1Nc1cccc(S(=O)(=O)NC(C)(C)C)c1", "min", 9.66),
    ("Cc1cnc(Nc2ccc(OCCCCCCC(=O)NO)cc2)nc1Nc1cccc(S(=O)(=O)NC(C)(C)C)c1", "min", 11.1),
]

----------
Procedure text: in vivo
Assay conditions: Sprague-Dawley, rat, iv, 3 mg/kg
Recorded endpoint: clearance at 24 h (mL/min/kg)

# Chemical structure, Unit of measurement, Observed result
measured = [
    ("Cc1cnc(Nc2ccc(OCCCCCCC(=O)NO)cc2)nc1Nc1cccc(S(=O)(=O)NC(C)(C)C)c1", "mL/min/kg", 76.2),
    ("Cc1cnc(Nc2ccc(OCCCCCCC(=O)NO)c(F)c2)nc1Nc1cccc(S(=O)(=O)NC(C)(C)C)c1", "mL/min/kg", 98.3),
]

----------
System: MCF7
Procedure text: cells
Assay type: functional, cell-based
Assay conditions: Homo sapiens, MCF7, 72 h
Recorded endpoint: IC50 (µM)

Examples from the recorded data:
# Chemical structure, Measurement target, Unit of measurement, Observed result
data = [
    ("Cc1cnc(Nc2ccc(OCCCCCCC(=O)NO)c(C(F)(F)F)c2)nc1Nc1cccc(S(=O)(=O)NC(C)(C)C)c1", "MCF7", "µM", 8.72),
    ("Cc1cc(Nc2ncc(C)c(Nc3cccc(S(=O)(=O)NC(C)(C)C)c3)n2)ccc1OCCCCCCC(=O)NO", "MCF7", "µM", 8.93),
    ("Cc1cnc(Nc2ccc(OCCCCCC(=O)NO)cc2)nc1Nc1cccc(S(=O)(=O)NC(C)(C)C)c1", "MCF7", "µM", 3.22),
    ("Cc1cnc(Nc2ccc(OCCCCCCCC(=O)NO)cc2)nc1Nc1cccc(S(=O)(=O)NC(C)(C)C)c1", "MCF7", "µM", 9.06),
    ("Cc1cnc(Nc2ccc(OCCCCCCC(=O)NO)cc2)nc1Nc1cccc(S(=O)(=O)NC(C)(C)C)c1", "MCF7", "µM", 1.83),
    ("Cc1cnc(Nc2ccc(OCCCCCCC(=O)NO)c(Cl)c2)nc1Nc1cccc(S(=O)(=O)NC(C)(C)C)c1", "MCF7", "µM", 6.06),
]

A. Cc1cnc(Nc2ccc(OCCCCCC(=O)NO)c(Cl)c2)nc1Nc1cccc(S(=O)(=O)NC(C)(C)C)c1
B. Cc1cnc(Nc2ccc(OCCCCCC(=O)NO)c(C(F)(F)F)c2)nc1Nc1cccc(S(=O)(=O)NC(C)(C)C)c1
Which record shows the lower IC50: the first, A , or the second, B ? The response must carry the label of the picked entry.
B
